The values you see were collected from ChEMBL document CHEMBL4052629.

experiment: Selectivity index, ratio of IC50 for human LO2 cells to IC50 for human HepG2 cells; format: functional
measure-name: Ratio IC50

| mol | value-reported |
| --- | --- |
| COc1ccc(-c2cc(=O)c3c(O)c(OC)c(O[C@@H]4O[C@H](C(=O)N5CCN(CCOc6no[n+]([O-])c6S(=O)(=O)c6ccccc6)CC5)[C@@H](O)[C@H](O)[C@H]4O)cc3o2)cc1 | 2.4 |
| O=C(NCCCOc1no[n+]([O-])c1S(=O)(=O)c1ccccc1)[C@H]1O[C@@H](Oc2cc3oc(-c4ccc(OCc5ccccc5)cc4)cc(=O)c3c(O)c2OCc2ccccc2)[C@H](O)[C@@H](O)[C@@H]1O | 95.9 |
| COc1ccc(-c2cc(=O)c3c(O)c(OC)c(O[C@@H]4O[C@H](C(=O)NCCOc5no[n+]([O-])c5S(=O)(=O)c5ccccc5)[C@@H](O)[C@H](O)[C@H]4O)cc3o2)cc1 | 3.2 |
| O=C(NCCOc1no[n+]([O-])c1S(=O)(=O)c1ccccc1)[C@H]1O[C@@H](Oc2cc3oc(-c4ccc(OCc5ccccc5)cc4)cc(=O)c3c(O)c2OCc2ccccc2)[C@H](O)[C@@H](O)[C@@H]1O | 13 |
| COc1ccc(-c2cc(=O)c3c(O)c(OC)c(O[C@@H]4O[C@H](C(=O)NCCCOc5no[n+]([O-])c5S(=O)(=O)c5ccccc5)[C@@H](O)[C@H](O)[C@H]4O)cc3o2)cc1 | 3.7 |

----------
assay: Drug metabolism in pH 7.4 phosphate buffer solution assessed as NO release at 10^-5 M after 0.75 hrs in presence of L-cysteine by Griess assay; assay type: physicochemical; details: pH 7.4, 0.75 h, 10 µM

| mol | Drug metabolism, µmol/L |
| --- | --- |
| O=C(NCCOc1no[n+]([O-])c1S(=O)(=O)c1ccccc1)[C@H]1O[C@@H](Oc2cc3oc(-c4ccc(OCc5ccccc5)cc4)cc(=O)c3c(O)c2OCc2ccccc2)[C@H](O)[C@@H](O)[C@@H]1O | 17.53 |
| COc1ccc(-c2cc(=O)c3c(O)c(OC)c(O[C@@H]4O[C@H](C(=O)NCCOc5no[n+]([O-])c5S(=O)(=O)c5ccccc5)[C@@H](O)[C@H](O)[C@H]4O)cc3o2)cc1 | 41.94 |
| COc1ccc(-c2cc(=O)c3c(O)c(OC)c(O[C@@H]4O[C@H](C(=O)OCCCO[N+](=O)[O-])[C@@H](O)[C@H](O)[C@H]4O)cc3o2)cc1 | 1.61 |

----------
# Drug metabolism values compiled below
test: Drug metabolism in pH 7.4 phosphate buffer solution assessed as NO release at 10^-5 M after 0.5 hrs in presence of L-cysteine by Griess assay; assay type: physicochemical; conditions: pH 7.4, 0.5 h, 10 µM

| compound | Drug metabolism |
| --- | --- |
| COc1ccc(-c2cc(=O)c3c(O)c(OC)c(O[C@@H]4O[C@H](C(=O)NCC(C)Oc5no[n+]([O-])c5S(=O)(=O)c5ccccc5)[C@@H](O)[C@H](O)[C@H]4O)cc3o2)cc1 (some centres undefined) | 20.78 µmol/L |
| O=C(NCCCOc1no[n+]([O-])c1S(=O)(=O)c1ccccc1)[C@H]1O[C@@H](Oc2cc3oc(-c4ccc(OCc5ccccc5)cc4)cc(=O)c3c(O)c2OCc2ccccc2)[C@H](O)[C@@H](O)[C@@H]1O | 10.11 µmol/L |
| COc1ccc(-c2cc(=O)c3c(O)c(OC)c(O[C@@H]4O[C@H](C(=O)OCCCO[N+](=O)[O-])[C@@H](O)[C@H](O)[C@H]4O)cc3o2)cc1 | 1.25 µmol/L |
| COc1ccc(-c2cc(=O)c3c(O)c(OC)c(O[C@@H]4O[C@H](C(=O)NCCOc5no[n+]([O-])c5S(=O)(=O)c5ccccc5)[C@@H](O)[C@H](O)[C@H]4O)cc3o2)cc1 | 33.26 µmol/L |
